Values were extracted from patent US11872221B2.

Measurement Description: Phase 1 drug-drug interaction study, plasma pharmacokinetics of dorzagliatin and sitagliptin
Assay type: in vivo, human
Measurement Setup: human, plasma, oral; T2DM subjects; sitagliptin 100 mg QD alone (Day 5); read-out: Least squares geometric mean AUC0-24h of plasma sitagliptin
Endpoint Label: AUC(0-t) (ng·h/mL)
Hi! Could you send only the number? It should be in ng·h/mL, unit omitted.

Exam item: For the molecule N[C@@H](CC(=O)N1CCn2c(nnc2C(F)(F)F)C1)Cc1cc(F)c(F)cc1F , report AUC(0-t).
Marked response: 2940

----------
Measurement Description: Phase 1 drug-drug interaction study, plasma pharmacokinetics of dorzagliatin and sitagliptin
Assay type: in vivo, human
Measurement Setup: human, plasma, oral; T2DM subjects; dorzagliatin 75 mg BID in combination with sitagliptin 100 mg QD (Day 10); read-out: Least squares geometric mean AUC0-24h of plasma dorzagliatin
Endpoint Label: AUC(0-t) (ng·h/mL)
Hi! Could you send only the number? It should be in ng·h/mL, unit omitted.

Exam item: For the compound CC(C)C[C@@H](C(=O)Nc1ccn(C[C@@H](O)CO)n1)N1CC(Oc2ccccc2Cl)=CC1=O [Dorzagliatin] , report AUC(0-t).
Marked response: 6590
